Species on record: Rattus norvegicus
Test: Open TG-GATES - Regimen: Daily Repeat
Format: toxicity, organism-based, Sprague-Dawley
Set-up: regimen Daily Repeat, gender Male, age 6 weeks
Conditions: in vivo, po, 0 mg/kg, 72 h, tissue Plasma, route gavage, dose level Control, time 3 day
endpoint.label: DBIL (mg/dL)
Numbers only, in mg/dL.

* C#C[C@]1(O)CC[C@H]2[C@@H]3CCC4=Cc5oncc5C[C@]4(C)[C@H]3CC[C@@]21C | 0

Respectfully, I request DBIL for each entry included below.
1. CC(=O)Nc1nnc(S(N)(=O)=O)s1 [ACETAZOLAMIDE]
2. O=C(O)Cc1ccccc1Nc1c(Cl)cccc1Cl
3. Clc1c(Cl)c(Cl)c(Cl)c(Cl)c1Cl

0
0.1
0.038
